- STUDY SYSTEM: h5-HT5A receptor (Homo sapiens)
- Construct: expressed in transfected cells; membranes used
- Sequence (P47898 whole entry): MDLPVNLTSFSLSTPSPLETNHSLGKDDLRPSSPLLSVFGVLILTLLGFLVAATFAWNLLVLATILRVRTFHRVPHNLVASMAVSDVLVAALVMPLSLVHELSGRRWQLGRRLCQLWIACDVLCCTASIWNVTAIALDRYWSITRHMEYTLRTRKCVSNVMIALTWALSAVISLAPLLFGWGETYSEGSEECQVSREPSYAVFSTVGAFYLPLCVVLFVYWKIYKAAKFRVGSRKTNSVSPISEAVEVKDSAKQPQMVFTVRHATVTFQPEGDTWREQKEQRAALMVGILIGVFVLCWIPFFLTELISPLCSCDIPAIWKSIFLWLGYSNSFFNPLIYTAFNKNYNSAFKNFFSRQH
- PROTOCOL NOTES: h5-HT5A [3H]5-CT binding assay
- RECORDED CONDITIONS: affinity for 5-HT5A; membranes of HEK293 cells expressing the h5-HT5A receptor gene, 2.5 nM [3H]5-CT
pKi: −log10 of the molar value.
MEASUREMENT KIND: pKi

MOLECULE	MEASUREMENT KIND	OBSERVED RESULT
COc1ccccc1CNC(=N)Nc1cccc(-c2ccc(F)cc2)n1 [Example 50]	pKi	> 6.52
COc1ccccc1CNC(=N)Nc1ccc(-c2ccc(F)cc2)cn1 [Example 88, acetate]	pKi	> 7.00
COc1cccc(OC)c1CNC(=N)Nc1ccc(I)cn1 [Example 3]	pKi	> 7.00
N=C(NCc1ccccc1Cl)Nc1ccc(I)cn1 [Example 94, acetate]	pKi	> 6.52
COc1cccc(OC)c1CNC(=N)Nc1cccc(Br)n1 [Example 43]	pKi	> 7.00
COc1cccc(OC)c1CNC(=N)Nc1ncccc1Br [Example 46, acetate]	pKi	> 7.00
COc1ccccc1CNC(=N)Nc1cc(C)ccn1 [Example 29, acetate]	pKi	> 7.00
COc1cccc(F)c1CNC(=N)Nc1cccc(C#N)n1 [Example 77, acetate]	pKi	> 7.00
COc1cccc(OC)c1CNC(=N)Nc1ccc2ccccc2n1 [Example 41, acetate]	pKi	> 7.00
